testedSystem: human renin (Homo sapiens, UniProt P00797)
Sequence (P00797 67-406): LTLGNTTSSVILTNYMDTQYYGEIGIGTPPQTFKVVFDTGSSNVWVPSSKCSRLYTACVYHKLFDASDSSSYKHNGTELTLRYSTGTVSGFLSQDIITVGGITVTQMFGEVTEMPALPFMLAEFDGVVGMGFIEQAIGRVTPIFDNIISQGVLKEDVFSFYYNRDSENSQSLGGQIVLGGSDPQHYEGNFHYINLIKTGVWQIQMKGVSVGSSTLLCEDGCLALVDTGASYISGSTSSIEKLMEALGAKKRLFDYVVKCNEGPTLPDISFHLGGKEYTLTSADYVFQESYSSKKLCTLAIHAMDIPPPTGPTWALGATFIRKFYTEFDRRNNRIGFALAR
procedureText: Inhibition of renin activity (human renin with sheep angiotensinogen, assay of angiotensin I)
Format: biochemical
appliedConditions: test compound 5 × 10^-5 mole/liter, phosphate buffer pH 7.3, 10 minutes at 37° C., mean of 3 or 4 experiments
Square brackets hold non-standard residues; d marks the D form. Peptide text beside a SMILES is read from it. * marks the point of attachment. 1Nal = N[C@@H](Cc1cccc2ccccc12)C(=O)O; Npys = O=[N+]([O-])c1cccnc1S*; Leu(ol) = CC(C)C[C@H](N)CO; Cbz = O=C(OCc1ccccc1)*; Mpa = O=C(O)CCS
Here the recorded % Inhibition is given for each entry.

compound	% Inhibition, %
CC(C)C[C@@H](CO)NC(=O)[C@H](Cc1c[nH]cn1)NC(=O)[C@H](Cc1ccccc1)NC(=O)CCSSc1ncccc1[N+](=O)[O-] [Compound 11] ([Mpa](Npys)FH[Leu(ol)])	70
CC(C)C[C@@H](CO)NC(=O)[C@H](Cc1c[nH]cn1)NC(=O)[C@H](Cc1ccccc1)NC(=O)OCc1ccccc1 [Compound 10] (Cbz-Phe-His-[Leu(ol)])	58
CC(C)C[C@@H](CO)NC(=O)[C@H](Cc1c[nH]cn1)NC(=O)[C@H](Cc1cccc2ccccc12)NC(=O)OCc1ccccc1 [Compound 14] (Cbz-[1Nal]-His-[Leu(ol)])	71
